# Target under test: Protein farnesyltransferase (Homo sapiens, UniProt P49354+P49356)
# Test details: Inhibitory activity against Ha-Ras processing in COS7 cells
# Assay type: functional, cell-based, COS-7
Threshold check on IC50: strictly below 60 nM is true (1); on or above 60 nM is false (0).

Compound | Label value
O=C(NCc1cccnc1)C1CN(C2c3ccc(Cl)cc3CCc3cc(Br)cnc32)CCN1C(=O)C1CCCCCC1 (configuration not stated) | false (0)
Cn1cncc1CCNC(=O)C1CN(C2c3ccc(Cl)cc3CCc3cc(Br)cnc32)CCN1C(=O)NC1CCCCC1 (configuration not stated) | true (1)
CN(C)C(=O)CCC(=O)N1CCN(C2c3ccc(Cl)cc3CCc3cc(Br)cnc32)CC1C(=O)NCc1cccnc1 (configuration not stated) | true (1)
CC(C)NC(=O)N1CCN(C2c3ccc(Cl)cc3CCc3cc(Br)cnc32)CC1C(=O)NCc1cccnc1 (configuration not stated) | false (0)
COCCC(=O)N1CCN(C2c3ccc(Cl)cc3CCc3cc(Br)cnc32)CC1C(=O)NCc1cccnc1 (configuration not stated) | false (0)
O=C(NCCc1c[nH]cn1)C1CN(C2c3ccc(Cl)cc3CCc3cc(Br)cnc32)CCN1C(=O)NC1CCCCC1 (configuration not stated) | true (1)
CC(=O)CCCC(=O)N1CCN(C2c3ccc(Cl)cc3CCc3cc(Br)cnc32)CC1C(=O)NCc1cccnc1 (configuration not stated) | true (1)
CCCCC(=O)N1CCN(C2c3ccc(Cl)cc3CCc3cc(Br)cnc32)CC1C(=O)Nc1cc(C)no1 (configuration not stated) | false (0)
O=C(NCc1cccnc1)C1CN(C2c3ccc(Cl)cc3CCc3cc(Br)cnc32)CCN1C(=O)NC1CCCCCC1 (configuration not stated) | true (1)
CC(C)(C)CC(=O)N1CCN(C2c3ccc(Cl)cc3CCc3cc(Br)cnc32)CC1C(=O)NCc1cccnc1 (configuration not stated) | false (0)
O=C(NCc1cccnc1)C1CN(C2c3ccc(Cl)cc3CCc3cc(Br)cnc32)CCN1C(=O)CCC1CCCCC1 (configuration not stated) | true (1)
O=C(NCc1cccnc1)C1CN(C2c3ccc(Cl)cc3CCc3cc(Br)cnc32)CCN1C(=O)C1CCCC1 (configuration not stated) | false (0)
O=C(NCc1cccnc1)C1CN(C2c3ccc(Cl)cc3CCc3cc(Br)cnc32)CCN1C(=O)NC1CCCC1 (configuration not stated) | true (1)
O=C(NCCCN1CCCC1=O)C1CN(C2c3ccc(Cl)cc3CCc3cc(Br)cnc32)CCN1C(=O)NC1CCCCC1 (configuration not stated) | true (1)
CC(C)(C)OC(=O)N1CCN(C2c3ccc(Cl)cc3CCc3cc(Br)cnc32)CC1C(=O)NCc1cccnc1 (configuration not stated) | false (0)
CCCCC(=O)N1CCN(C2c3ccc(Cl)cc3CCc3cc(Br)cnc32)CC1C(=O)NCc1ncc[nH]1 (configuration not stated) | false (0)
CC(=O)CCCCC(=O)N1CCN(C2c3ccc(Cl)cc3CCc3cc(Br)cnc32)CC1C(=O)NCc1cccnc1 (configuration not stated) | true (1)
